Recorded measurements of melting point, one per entry

Solved entries (count: 5):
# Structure notation, Endpoint value
records = [
    ("Cc1cc(N2CCCN(Cc3ccc4c(c3)OCO4)C2=O)ccc1Oc1ccc(NC(=O)c2ccc(C(F)(F)F)cc2)cn1", "165 to 166 °C"),
    ("Br.CN(CC(=O)N1CCN(Cc2ccc3c(c2)OCO3)CC1)c1cc(F)c(Oc2ccc(C(=O)Nc3ccc(C(F)(F)F)cc3)cn2)cc1F", "224.5 to 226 °C"),
    ("O=C(Nc1ccc(Oc2ccc(N3CCN(S(=O)(=O)c4ccccc4)CC3)cc2)cc1)c1ccc(Cl)c(Cl)c1", "191 to 192 °C"),
    ("COc1ccc(CN2CCCN(c3ccc(Oc4ccc(NC(=O)c5ccc(C(F)(F)F)cc5)cn4)c(C)c3)C2=O)cc1OC", "155 to 157 °C"),
    ("O=C(Nc1ccc(Oc2ccc(CCC(=O)N3CCN(c4cccnc4)CC3)cc2)cc1)c1ccc(Cl)c(Cl)c1", "153 to 155 °C"),
]

Next compound, melting point to be filled in.
Cc1cc(N(C)CC(=O)N2CCN(C(=O)c3ccc4c(c3)OCO4)CC2)ccc1Oc1ccc(NC(=O)c2ccc(Cl)c(Cl)c2)cn1 yielded melting point of 133 to 135 °C
